- Test system: S. aureus Newman
- ASSAY NAME: Bliss interaction score (quartile over a dose matrix) (fitness difference); higher = more antagonism (negative = synergy);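 further: first quartile when negative (synergy) and third quartile when positive (antagonism)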
READOUT NAME: Bliss interaction score
Form rule: numeric answer, no unit written next to it.

COMPOUND	Bliss interaction score
CC(=O)Oc1ccccc1C(=O)O [Acetylsalicylicacid] + CN[C@@H]1[C@H](O)[C@H](NC)[C@H]2O[C@@]3(O)C(=O)C[C@@H](C)O[C@H]3O[C@@H]2[C@H]1O [Spectinomycin]	0.0859

Then there is this compound:
**Query** For COc1cccc2c1C(=O)c1c(O)c3c(c(O)c1C2=O)C[C@@](O)(C(=O)CO)C[C@@H]3O[C@H]1C[C@H](N)[C@H](O)[C@H](C)O1 [Doxorubicin] + COc1c(N2C[C@@H]3CCCN[C@@H]3C2)c(F)cc2c(=O)c(C(=O)O)cn(C3CC3)c12 [Moxifloxacin] , what is its reported Bliss interaction score?
**Result** 0.177

----------
- Tested on: S. pneumoniae D39V
- ASSAY NAME: Bliss interaction score (quartile over a dose matrix) (fitness difference); higher = more antagonism (negative = synergy)
- MEASUREMENT CONTEXT: main component drawn
Measured Bliss interaction score values are reported for all entries that follow.
Form rule: numeric answer, no unit written next to it.

COMPOUND	Bliss interaction score
CC(=O)Oc1ccccc1C(=O)O [Acetylsalicylicacid] + CC[C@H](C)[C@H](N)C1=N[C@H](C(=O)N[C@@H](CC(C)C)C(=O)N[C@H](CCC(=O)O)C(=O)N[C@H](C(=O)N[C@H]2CCCCNC(=O)[C@H](CC(N)=O)NC(=O)[C@@H](CC(=O)O)NC(=O)[C@H](Cc3cnc[nH]3)NC(=O)[C@@H](Cc3ccccc3)NC(=O)[C@H]([C@@H](C)CC)NC(=O)[C@@H](CCCN)NC2=O)[C@@H](C)CC)CS1 [Bacitracin]	0.165
C[C@@H]1O[C@@H]1P(=O)(O)O [Fosfomycin] + CC(C1CCC(C(O1)OC2C(CC(C(C2O)OC3C(C(C(CO3)(C)O)NC)O)N)N)N)NC	-0.0335
O=C(O)c1cn(C2CC2)c2cc(N3CCNCC3)c(F)cc2c1=O [Ciprofloxacin] + CC(C1CCC(C(O1)OC2C(CC(C(C2O)OC3C(C(C(CO3)(C)O)NC)O)N)N)N)NC	-0.0953
CO/N=C(\C(=O)N[C@@H]1C(=O)N2C(C(=O)O)=C(COC(N)=O)CS[C@H]12)c1ccco1 [Cefuroxime] + CC(C1CCC(C(O1)OC2C(CC(C(C2O)OC3C(C(C(CO3)(C)O)NC)O)N)N)N)NC	-0.0232
CO/N=C(\C(=O)N[C@@H]1C(=O)N2C(C(=O)O)=C(COC(C)=O)CS[C@H]12)c1csc(N)n1 [Cefotaxime] + CC(C1CCC(C(O1)OC2C(CC(C(C2O)OC3C(C(C(CO3)(C)O)NC)O)N)N)N)NC	0.0656
CC(=O)Oc1ccccc1C(=O)O [Acetylsalicylicacid] + CC(C1CCC(C(O1)OC2C(CC(C(C2O)OC3C(C(C(CO3)(C)O)NC)O)N)N)N)NC [Gentamicin]	0.0535
CN(C)[C@@H]1C(O)=C(C(N)=O)C(=O)[C@@]2(O)C(O)=C3C(=O)c4c(O)ccc(Cl)c4[C@@](C)(O)[C@H]3C[C@@H]12 [Clortetracycline] + CC(C1CCC(C(O1)OC2C(CC(C(C2O)OC3C(C(C(CO3)(C)O)NC)O)N)N)N)NC	-0.183

Then there is this compound:
**Query** For COc1cccc2c1C(=O)c1c(O)c3c(c(O)c1C2=O)C[C@@](O)(C(=O)CO)C[C@@H]3O[C@H]1C[C@H](N)[C@H](O)[C@H](C)O1 [Doxorubicin] + CC(C1CCC(C(O1)OC2C(CC(C(C2O)OC3C(C(C(CO3)(C)O)NC)O)N)N)N)NC , what is its reported Bliss interaction score?
**Result** 0.0449
